Please respond with reported log10(IC50) for every item in the list.
# Test system: LOX IMVI
# TEST_NAME: cells
# Assay type: functional, cell-based
# CONDITION_DESCRIPTION: Homo sapiens, 24 h
# Description: Cytotoxicity against human LOX IMVI cells assessed as reduction in cell viability incubated for 24 hrs by MTT assay
Units before log transform: µM; reported quantity: IC50; transform: log10.

Form: item `COc1cc(-c2nc(-c3ccccc3)[nH]c2-c2ccnc(NCCCNS(=O)(=O)c3cccc4ccccc34)n2)ccc1Cl` ; test system LOX IMVI; log10(IC50): 1.13

Form: item `COc1cc(-c2nc(-c3ccccc3)[nH]c2-c2ccnc(NCCCNS(=O)(=O)c3cccc4ccccc34)n2)ccc1F` ; test system LOX IMVI; log10(IC50): 1.17

Form: item `O=S(=O)(NCCCNc1nccc(-c2[nH]c(-c3ccccc3)nc2-c2ccc(Cl)c(O)c2)n1)c1ccc(C(F)(F)F)cc1` ; test system LOX IMVI; log10(IC50): 1.00

Form: item `COc1cc(-c2nc(-c3ccccc3)[nH]c2-c2ccnc(NCCCNS(=O)(=O)c3ccccc3)n2)ccc1F` ; test system LOX IMVI; log10(IC50): 0.66

Form: item `O=S(=O)(NCCCNc1nccc(-c2[nH]c(-c3ccccc3)nc2-c2ccc(Cl)c(O)c2)n1)c1ccc(Cl)cc1` ; test system LOX IMVI; log10(IC50): 1.79

Form: item `O=S(=O)(NCCCNc1nccc(-c2[nH]c(-c3ccccc3)nc2-c2ccc(F)c(O)c2)n1)c1ccc(O)cc1` ; test system LOX IMVI; log10(IC50): 1.14

Form: item `COc1cc(-c2nc(-c3ccccc3)[nH]c2-c2ccnc(NCCCNS(=O)(=O)c3ccc(C)cc3)n2)ccc1Cl` ; test system LOX IMVI; log10(IC50): 1.27

Form: item `O=S(=O)(NCCCNc1nccc(-c2[nH]c(-c3ccccc3)nc2-c2ccc(F)c(O)c2)n1)c1ccc(C(F)(F)F)cc1` ; test system LOX IMVI; log10(IC50): 0.39

Form: item `O=S(=O)(NCCCNc1nccc(-c2[nH]c(-c3ccccc3)nc2-c2ccc(F)c(O)c2)n1)c1ccc(F)cc1` ; test system LOX IMVI; log10(IC50): 1.28

Form: item `COc1cc(-c2nc(-c3ccccc3)[nH]c2-c2ccnc(NCCCNS(=O)(=O)c3ccc(Cl)cc3)n2)ccc1F` ; test system LOX IMVI; log10(IC50): 1.92

Form: item `COc1cc(-c2nc(-c3ccccc3)[nH]c2-c2ccnc(NCCCNS(=O)(=O)c3ccc(C(F)(F)F)cc3)n2)ccc1F` ; test system LOX IMVI; log10(IC50): 1.88

Form: item `COc1cc(-c2nc(-c3ccccc3)[nH]c2-c2ccnc(NCCCNS(=O)(=O)c3ccc(Cl)cc3)n2)ccc1Cl` ; test system LOX IMVI; log10(IC50): 1.78
